MEASUREMENT TARGET: T1, mouse GIP receptor (mouse) (UniProt Q0P543)
T1 sequence (looked up): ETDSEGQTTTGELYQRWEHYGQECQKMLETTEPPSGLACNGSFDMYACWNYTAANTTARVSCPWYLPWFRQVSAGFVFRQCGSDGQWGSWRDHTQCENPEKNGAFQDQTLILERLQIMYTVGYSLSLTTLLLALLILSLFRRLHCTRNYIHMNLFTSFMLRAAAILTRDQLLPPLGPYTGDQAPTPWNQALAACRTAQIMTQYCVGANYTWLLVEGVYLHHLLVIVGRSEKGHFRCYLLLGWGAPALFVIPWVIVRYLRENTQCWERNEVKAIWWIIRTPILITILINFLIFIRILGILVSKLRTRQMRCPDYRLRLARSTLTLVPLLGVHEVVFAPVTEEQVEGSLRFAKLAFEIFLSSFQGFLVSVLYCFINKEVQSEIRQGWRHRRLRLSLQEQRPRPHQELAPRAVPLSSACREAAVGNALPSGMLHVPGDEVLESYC
ASSAY EXPLANATION: cell-based or functional assay
Documented log10(cAMP EC50) across a set of binders
ENDPOINT: log10(cAMP EC50) (log10 of the value in nM)

IP332 (Fc fusion) YSEGTFTSDYSIALAAAAQQDFVNWLLAGGGGGGGSGGGGSGGGGSGGGGSGGGGSGGGGSA : -0.68
IP347 (Fc fusion) YSEGTFTSDYSKLLERQAIDEFIAILLKGGGGGGGSGGGGSGGGGSGGGGSGGGGSGGGGSA : -0.07
IP308 (Fc fusion) YSEGTFISDYSIALAAAAAKDFVNWLLAGGGGGGGSGGGGSGGGGSGGGGSATHTCPPC : -0.77
IP343 (Fc fusion) YSEGTFTSDYAAAAERQAIDAFAAWLAAAAGGGGGSGGGGSGGGGSGGGGSA : 2.94
IP310 (Fc fusion) YSEGTFTSDVSSYMERQAIDEFIAWLLKGKAAAGGSGSTASSGSGSATGGGGAATHTCPPC : 1.49
IP299 (Fc fusion) YSEGTFISDYSKLLEEEAVRDFVEWLKAGGGGGGGSGGGGSGGGGSGGGGSATHTCPPC : 2.32
IP305 (Fc fusion) YSEGTFISDYSIALAAAAVRDFVNWLLAGGGGGGGSGGGGSGGGGSGGGGSATHTCPPC : 0.51
IP302 (Fc fusion) YSEGTFISDYSIALAAAAQQDFVNWLLAGGGGGGGSGGGGSGGGGSGGGGSATHTCPPC : -1.08
IP367 (Fc fusion) YSEGTFTSDYRILKERQAIDEFIAWLLKGGAAAGGSGSTASSGSGSATGGGGAATHTCPPC : -1.51
IP330 (Fc fusion) YSEGTFTSDYSKLLERQAIDEFIALLLKGGGGGGGSGGGGSGGGGSGGGGSGGGGSGGGGSA : -0.35
IP289 (Fc fusion) YSEGTFTSDYSKLLEKEAERLFIEWLLKGPGGGGGSGGGGSGGGGSGGGGSATHTCPPC : -0.36
